targetOrSystem: mouse NMUR2 (mouse, UniProt Q8BZ39 1-395)
Sequence (Q8BZ39 whole entry): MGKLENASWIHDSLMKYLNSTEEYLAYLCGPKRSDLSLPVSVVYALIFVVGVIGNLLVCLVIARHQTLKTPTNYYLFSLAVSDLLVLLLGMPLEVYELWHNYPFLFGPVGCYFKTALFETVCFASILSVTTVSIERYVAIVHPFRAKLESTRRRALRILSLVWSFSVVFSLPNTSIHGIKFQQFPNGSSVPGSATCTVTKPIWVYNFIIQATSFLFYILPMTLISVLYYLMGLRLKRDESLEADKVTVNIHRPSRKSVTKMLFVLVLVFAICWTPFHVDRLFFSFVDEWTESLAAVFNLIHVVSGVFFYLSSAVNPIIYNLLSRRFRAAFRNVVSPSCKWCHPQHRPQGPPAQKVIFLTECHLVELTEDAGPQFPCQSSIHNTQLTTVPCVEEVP
assayInfo: cell-based or functional assay
Starred links: 1 amine or outer side, 2 acyl side, 3 side chain; linkers in the order of their positions; H or OH if unused. Non-standard residues stand in square brackets, D forms with d. *: point of attachment. Ttds = 1-amino-4,7,10-trioxa-13-tridecanamine succinimic acid spacer, O=C(CCC(=O)[*:2])NCCCOCCOCCOCCCN[*:1]; Succinimide(1-Et,3-yl) = CCN1C(=O)CC(*)C1=O
readoutLabel: % Activity (FLIPR)
Write the numeric value and follow it with the unit.

### Prompt Give me measured % Activity (FLIPR), please, for this binder: Ac-C(Succinimide(1-Et,3-yl))[Ttds]FLFRPRN-NH2 (SMILES CCN1C(=O)CC(SC[C@H](NC(C)=O)C(=O)NCCCOCCOCCOCCCNC(=O)CCC(=O)N[C@@H](Cc2ccccc2)C(=O)N[C@@H](CC(C)C)C(=O)N[C@@H](Cc2ccccc2)C(=O)N[C@@H](CCCNC(=N)N)C(=O)N2CCC[C@H]2C(=O)N[C@@H](CCCNC(=N)N)C(=O)N[C@@H](CC(N)=O)C(N)=O)C1=O) [NMU15]
### Response 100%
